src = patent US20170198006A1

# Measured on: PRMT5/MEP50 (Homo sapiens, UniProt O14744)
# Construct: Flag-PRMT5; made in house; host or cells: Spodoptera frugiperda (SF9), baculovirus
# Sequence (O14744 with tags, fused parts or gaps): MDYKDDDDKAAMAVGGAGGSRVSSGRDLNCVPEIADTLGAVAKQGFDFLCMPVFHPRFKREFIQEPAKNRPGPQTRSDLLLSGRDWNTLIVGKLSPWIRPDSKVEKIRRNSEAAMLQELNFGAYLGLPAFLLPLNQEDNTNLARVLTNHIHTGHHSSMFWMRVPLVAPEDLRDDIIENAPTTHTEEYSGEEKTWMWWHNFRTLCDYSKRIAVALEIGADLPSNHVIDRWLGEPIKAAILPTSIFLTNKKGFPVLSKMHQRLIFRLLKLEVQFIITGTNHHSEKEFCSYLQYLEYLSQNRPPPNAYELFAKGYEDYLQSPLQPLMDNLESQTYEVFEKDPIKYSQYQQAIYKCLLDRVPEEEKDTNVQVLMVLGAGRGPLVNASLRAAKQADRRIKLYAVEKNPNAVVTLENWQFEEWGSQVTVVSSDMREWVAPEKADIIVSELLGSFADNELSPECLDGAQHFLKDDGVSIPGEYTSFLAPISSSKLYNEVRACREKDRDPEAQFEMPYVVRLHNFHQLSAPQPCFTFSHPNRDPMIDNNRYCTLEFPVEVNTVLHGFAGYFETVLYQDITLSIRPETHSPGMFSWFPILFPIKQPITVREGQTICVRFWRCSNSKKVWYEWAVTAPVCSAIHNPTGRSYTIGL
# Sequence (Q9BQA1 with tags, fused parts or gaps partner limits assumed): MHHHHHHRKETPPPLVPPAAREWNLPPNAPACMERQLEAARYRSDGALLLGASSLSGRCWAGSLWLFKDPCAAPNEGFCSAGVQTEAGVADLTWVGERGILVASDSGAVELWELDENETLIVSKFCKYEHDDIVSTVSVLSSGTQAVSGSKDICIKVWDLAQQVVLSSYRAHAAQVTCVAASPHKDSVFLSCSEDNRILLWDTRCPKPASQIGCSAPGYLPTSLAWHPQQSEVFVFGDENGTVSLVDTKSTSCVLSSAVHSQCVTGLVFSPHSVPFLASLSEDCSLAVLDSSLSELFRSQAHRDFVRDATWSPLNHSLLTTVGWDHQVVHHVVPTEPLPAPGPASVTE
# Experiment description: PRMT5 Biochemical Assay (PRMT5/MEP50 enzyme assay on histone H4 peptide substrate, 3H-SAM Flashplate)
# Protocol conditions: PRMT5 biochemical assay; read-out: Biochemical IC50
Property measured: IC50

compound="O=C(CC1NC(N2CCN(c3ccccc3)CC2)=NC1=O)NCC1CCCCC1 (centres unmarked) [Compound 53-14]" property_measured=IC50 result="1000 to 10000 nM"
compound="COCC(C)NCCN(C)C[C@H]1O[C@@H](n2cnc3c(N)ncnc32)[C@H](O)[C@@H]1O (some centres unmarked) [Compound 67-1]" property_measured=IC50 result="101 to 1000 nM"
compound="CN(CCNCCc1ccc(O)cc1)C[C@H]1O[C@@H](n2cnc3c(N)ncnc32)[C@H](O)[C@@H]1O [Compound 70-1]" property_measured=IC50 result="< 100 nM"
compound="Cc1cnc(CN)n1Cc1ccccc1 [Compound 5-13]" property_measured=IC50 result="1000 to 10000 nM"
compound="CCOc1ccc(NC(=O)CC2NC(N3CCN(c4ccccc4F)CC3)=NC2=O)cc1 (centres unmarked) [Compound 15-14]" property_measured=IC50 result="1000 to 10000 nM"
compound="Cc1ccc(C(=O)CC2NC(N3CCN(c4ccccn4)CC3)=NC2=O)cc1 (centres unmarked) [Compound 33-14]" property_measured=IC50 result="1000 to 10000 nM"
compound="CN(CCc1ccc(Cl)cc1)CCN(C)C[C@H]1O[C@@H](n2cnc3c(N)ncnc32)[C@H](O)[C@@H]1O [Compound 52-1]" property_measured=IC50 result="101 to 1000 nM"
compound="CSC[C@H]1O[C@@H](n2cnc3c(N)ncnc32)[C@H](O)[C@@H]1O [Compound 96-1]" property_measured=IC50 result="101 to 1000 nM"

###

Here, each record is paired with measured pIC50 data.
# Measured on: PRMT5/MEP50 (Homo sapiens)
# Construct: Flag-PRMT5; made in house; host or cells: Spodoptera frugiperda (SF9), baculovirus
# Experiment description: PRMT5 Biochemical Assay (PRMT5/MEP50 enzyme assay on histone H4 peptide substrate, 3H-SAM Flashplate)
# Protocol conditions: PRMT5 biochemical assay; read-out: Biochemical IC50
pIC50: −log10 of the molar value.
Property measured: pIC50

compound=Nc1ncnc2c1ncn2[C@@H]1O[C@H](CN(CCNCCc2ccc(Cl)cc2)Cc2ccccc2)[C@@H](O)[C@H]1O result="> 7.00"
compound="O=C(CC1NC(N2CCN(c3ccccc3)CC2)=NC1=O)Nc1ccc(Cl)cc1 (centres unmarked)" result="6.00 to 7.00"
compound=COc1ccc(Cn2c(CN3CCCCC3)cnc2CN)cc1 result="4.30 to 5.00"
compound="CN(CCNc1ccccc1)CC1O[C@@H](n2cnc3c(N)ncnc32)[C@H](O)[C@@H]1O (some centres unmarked)" result="> 7.00"
compound=NCCCN(CC[C@H](N)C(=O)O)C[C@H]1O[C@@H](n2cnc3c(N)ncnc32)[C@H](O)[C@@H]1O result="> 7.00"
compound="Cc1ccc(C(=O)CC2NC(N3CCN(c4cccnc4)CC3)=NC2=O)cc1 (centres unmarked)" result="5.00 to 6.00"
compound="COc1cccc(C(=O)CC2NC(N3CCN(c4ccccc4)CC3)=NC2=O)c1 (centres unmarked)" result="6.00 to 7.00"
compound="Cc1ccc(C(=O)CC2NC(N3Cc4ccccc4C3)=NC2=O)cc1 (centres unmarked)" result="5.00 to 6.00"
compound=CC(=O)N(CCNCCc1ccc(Cl)cc1)C[C@H]1O[C@@H](n2cnc3c(N)ncnc32)[C@H](O)[C@@H]1O result="6.00 to 7.00"
compound=O=C(NC[C@H](O)CN1CCc2ccccc2C1)c1cc(NC2CCN(CC(F)(F)F)CC2)ncn1 result="> 7.00"
compound="COc1ccc(C(=O)CC2NC(N3CCN(c4ccccc4)CC3)=NC2=O)cc1 (centres unmarked)" result="5.00 to 6.00"
compound=CC(=O)N1CC(Nc2cc(C(=O)N(C)C[C@H](O)CN3CCc4ccccc4C3)ncn2)C1 result="6.00 to 7.00"
compound="Cc1cccc(NC(=O)CC2NC(N3CCN(c4ccccc4)CC3)=NC2=O)c1 (centres unmarked)" result="5.00 to 6.00"
compound=CN(CCN(CC[C@H](N)C(=O)OCc1ccccc1)C[C@H]1O[C@@H](n2cnc3c(N)ncnc32)[C@H](O)[C@@H]1O)C(=O)OCc1ccccc1 result="> 7.00"
compound=COc1cc(CNCCN(C)C[C@H]2O[C@@H](n3cnc4c(N)ncnc43)[C@H](O)[C@@H]2O)cc(OC)c1 result="6.00 to 7.00"
compound="Cc1ccc(C(=O)CC2NC(N(C)CCc3ccccc3)=NC2=O)cc1 (centres unmarked)" result="5.00 to 6.00"
compound=NCCN(CCCCC(=O)O)C[C@H]1O[C@@H](n2cnc3c(N)ncnc32)[C@H](O)[C@@H]1O result="> 7.00"
compound="CN(C)c1cccc2c(S(=O)(=O)NCCC(N)c3ccccc3)cccc12 (centres unmarked)" result="> 7.00"
compound=CN(CCNCCc1c[nH]c2ccccc12)C[C@H]1O[C@@H](n2cnc3c(N)ncnc32)[C@H](O)[C@@H]1O result="> 7.00"
compound="CC(=O)N1CCC(Nc2cc(C(=O)NCC(C)(O)CN3CCc4ccccc4C3)ccn2)CC1 (centres unmarked)" result="> 7.00"
compound="COc1ccc(N2CCN(C3=NC(=O)C(CC(=O)Nc4ccc(C(C)=O)cc4)N3)CC2)cc1 (centres unmarked)" result="5.00 to 6.00"
compound=NCc1nc(CCNC(=O)c2ccccc2)cn1Cc1ccccc1 result="6.00 to 7.00"
compound="O=C(CC1NC(N2CCN(c3ccccc3)CC2)=NC1=O)c1ccc(Cl)cc1 (centres unmarked)" result="6.00 to 7.00"
compound="Cc1ccc(C(=O)CC2NC(N3CCN(c4ccccc4F)CC3)=NC2=O)cc1 (centres unmarked)" result="5.00 to 6.00"
compound="CC(N)CCN(C)C[C@H]1O[C@@H](n2cnc3c(N)ncnc32)[C@H](O)[C@@H]1O (some centres unmarked)" result="6.00 to 7.00"
compound=CN1CC[C@@H](N(C)C[C@H]2O[C@@H](n3cnc4c(N)ncnc43)[C@H](O)[C@@H]2O)C1 result="6.00 to 7.00"
compound=NCc1nccn1Cc1cccc(Cl)c1 result="5.00 to 6.00"
compound="O=C(CC1NC(N2CCC(c3ccccc3)CC2)=NC1=O)Nc1ccc(Cl)cc1 (centres unmarked)" result="5.00 to 6.00"
compound="Cn1cnc2ccc(-c3cccc(OCC(O)CN4CCc5ccccc5C4)c3)cc21 (centres unmarked)" result="> 7.00"
compound=O=C(NC[C@H](O)CN1Cc2ccccc2C1)c1cc(NC2COC2)ncn1 result="6.00 to 7.00"
compound=Nc1ncnc2c1ncn2[C@@H]1O[C@H](CSCC[C@H](N)CO)[C@@H](O)[C@H]1O result="> 7.00"
compound="Cc1ccc(C(=O)CC2NC(N3CCN(Cc4ccncc4)CC3)=NC2=O)cc1 (centres unmarked)" result="5.00 to 6.00"
